Test system: K-562R
experiment-description: Induction of apoptosis in human K562R cells assessed as necrotic cells at 10 uM by Annexin V staining-based flow cytometry (reference value: 0.87%)
Format: functional
readout-name: Activity (%)
Write the value in % as a bare number.

These recorded examples may help you get a feel for the data.
{"record-smiles": "COc1cc(C(=O)Nc2ccc(C)c(Nc3nccc(-c4cccnc4)n3)c2)ccc1OCCCCn1ccnc1", "unit-of-measure": "%", "Activity": 2.9}
{"record-smiles": "Cc1ccc(NC(=O)c2ccc(CN3CCN(C)CC3)cc2)cc1Nc1nccc(-c2cccnc2)n1", "unit-of-measure": "%", "Activity": 0.79}
{"record-smiles": "Cc1ccc(NC(=O)c2cc(Br)cc(OCCCCn3ccnc3)c2)cc1Nc1nccc(-c2cccnc2)n1", "unit-of-measure": "%", "Activity": 9.65}
{"record-smiles": "Cc1ccc(NC(=O)c2ccc([N+](=O)[O-])c(OCCCCn3ccnc3)c2)cc1Nc1nccc(-c2cccnc2)n1", "unit-of-measure": "%", "Activity": 1.25}
{"record-smiles": "Cc1ccc(NC(=O)c2ccc(OCCCCn3ccnc3)c(Br)c2)cc1Nc1nccc(-c2cccnc2)n1", "unit-of-measure": "%", "Activity": 0.65}

Item COc1ccc(C(=O)Nc2ccc(C)c(Nc3nccc(-c4cccnc4)n3)c2)cc1OCCCCn1ccnc1 was tested on K-562R; the reported Activity is 3.85

====

Test system: Lymphocyte
experiment-description: Cytotoxicity against human lymphocytes assessed as decrease in cell viability at 10 uM after 24 hrs by XTT assay
Type: cell-based
readout-name: Activity

{"record-smiles": "Cc1ccc(NC(=O)c2cc(Br)cc(OCCCCn3ccnc3)c2)cc1Nc1nccc(-c2cccnc2)n1", "Activity": "Non-Toxic"}
{"record-smiles": "COc1cc(C(=O)Nc2ccc(C)c(Nc3nccc(-c4cccnc4)n3)c2)ccc1OCCCCn1ccnc1", "Activity": "Non-Toxic"}
{"record-smiles": "Cc1ccc(NC(=O)c2ccc([N+](=O)[O-])c(OCCCCn3ccnc3)c2)cc1Nc1nccc(-c2cccnc2)n1", "Activity": "Non-Toxic"}
{"record-smiles": "COc1ccc(C(=O)Nc2ccc(C)c(Nc3nccc(-c4cccnc4)n3)c2)cc1OCCCCn1ccnc1", "Activity": "Non-Toxic"}

Moving on to another compound below.
Item Cc1ccc(NC(=O)c2ccc(OCCCCn3ccnc3)c(Br)c2)cc1Nc1nccc(-c2cccnc2)n1 was tested on Lymphocyte; the reported Activity is Non-Toxic

====

measurement-target: Heme oxygenase 1 (Rattus norvegicus)
Sequence (P06762 whole entry): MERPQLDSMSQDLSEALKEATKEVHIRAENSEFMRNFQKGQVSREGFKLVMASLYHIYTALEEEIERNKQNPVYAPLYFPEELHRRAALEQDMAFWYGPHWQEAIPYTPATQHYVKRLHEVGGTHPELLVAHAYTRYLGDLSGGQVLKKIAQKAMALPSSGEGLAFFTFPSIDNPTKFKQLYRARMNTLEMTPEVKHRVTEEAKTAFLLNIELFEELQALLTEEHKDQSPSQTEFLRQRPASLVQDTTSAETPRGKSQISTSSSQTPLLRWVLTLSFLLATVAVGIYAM
experiment-description: Inhibition of heme oxygenase 1 in Sprague-Dawley rat spleen microsomal fraction assessed as decrease in bilirubin formation using hemin as substrate after 60 mins by spectrophotometric method
# maps each entry to its IC50
Write the value in µM as a bare number.

These recorded examples may help you get a feel for the data.
{"record-smiles": "Cc1ccc(NC(=O)c2ccc(OCCCCn3ccnc3)c(Br)c2)cc1Nc1nccc(-c2cccnc2)n1", "IC50 (µM)": 0.92}
{"record-smiles": "Cc1ccc(NC(=O)c2cc(I)ccc2OCCCCn2ccnc2)cc1Nc1nccc(-c2cccnc2)n1", "IC50 (µM)": 38.9}
{"record-smiles": "Cc1ccc(NC(=O)c2ccc([N+](=O)[O-])c(OCCCCn3ccnc3)c2)cc1Nc1nccc(-c2cccnc2)n1", "IC50 (µM)": 4.03}
{"record-smiles": "Cc1ccc(NC(=O)c2ccc(OCCCCn3ccnc3)cc2)cc1Nc1nccc(-c2cccnc2)n1", "IC50 (µM)": 66.2}
{"record-smiles": "Cc1ccc(NC(=O)c2ccccc2OCCCCn2ccnc2)cc1Nc1nccc(-c2cccnc2)n1", "IC50 (µM)": 28}

Moving on to another compound below.
# compound Cc1ccc(NC(=O)c2ccc(I)cc2OCCCCn2ccnc2)cc1Nc1nccc(-c2cccnc2)n1 ; its IC50 = 15.1
